Target: Voltage-gated L-type calcium channel (CAV1.2) (Homo sapiens, UniProt Q13936)
Sequence (Q13936 whole entry): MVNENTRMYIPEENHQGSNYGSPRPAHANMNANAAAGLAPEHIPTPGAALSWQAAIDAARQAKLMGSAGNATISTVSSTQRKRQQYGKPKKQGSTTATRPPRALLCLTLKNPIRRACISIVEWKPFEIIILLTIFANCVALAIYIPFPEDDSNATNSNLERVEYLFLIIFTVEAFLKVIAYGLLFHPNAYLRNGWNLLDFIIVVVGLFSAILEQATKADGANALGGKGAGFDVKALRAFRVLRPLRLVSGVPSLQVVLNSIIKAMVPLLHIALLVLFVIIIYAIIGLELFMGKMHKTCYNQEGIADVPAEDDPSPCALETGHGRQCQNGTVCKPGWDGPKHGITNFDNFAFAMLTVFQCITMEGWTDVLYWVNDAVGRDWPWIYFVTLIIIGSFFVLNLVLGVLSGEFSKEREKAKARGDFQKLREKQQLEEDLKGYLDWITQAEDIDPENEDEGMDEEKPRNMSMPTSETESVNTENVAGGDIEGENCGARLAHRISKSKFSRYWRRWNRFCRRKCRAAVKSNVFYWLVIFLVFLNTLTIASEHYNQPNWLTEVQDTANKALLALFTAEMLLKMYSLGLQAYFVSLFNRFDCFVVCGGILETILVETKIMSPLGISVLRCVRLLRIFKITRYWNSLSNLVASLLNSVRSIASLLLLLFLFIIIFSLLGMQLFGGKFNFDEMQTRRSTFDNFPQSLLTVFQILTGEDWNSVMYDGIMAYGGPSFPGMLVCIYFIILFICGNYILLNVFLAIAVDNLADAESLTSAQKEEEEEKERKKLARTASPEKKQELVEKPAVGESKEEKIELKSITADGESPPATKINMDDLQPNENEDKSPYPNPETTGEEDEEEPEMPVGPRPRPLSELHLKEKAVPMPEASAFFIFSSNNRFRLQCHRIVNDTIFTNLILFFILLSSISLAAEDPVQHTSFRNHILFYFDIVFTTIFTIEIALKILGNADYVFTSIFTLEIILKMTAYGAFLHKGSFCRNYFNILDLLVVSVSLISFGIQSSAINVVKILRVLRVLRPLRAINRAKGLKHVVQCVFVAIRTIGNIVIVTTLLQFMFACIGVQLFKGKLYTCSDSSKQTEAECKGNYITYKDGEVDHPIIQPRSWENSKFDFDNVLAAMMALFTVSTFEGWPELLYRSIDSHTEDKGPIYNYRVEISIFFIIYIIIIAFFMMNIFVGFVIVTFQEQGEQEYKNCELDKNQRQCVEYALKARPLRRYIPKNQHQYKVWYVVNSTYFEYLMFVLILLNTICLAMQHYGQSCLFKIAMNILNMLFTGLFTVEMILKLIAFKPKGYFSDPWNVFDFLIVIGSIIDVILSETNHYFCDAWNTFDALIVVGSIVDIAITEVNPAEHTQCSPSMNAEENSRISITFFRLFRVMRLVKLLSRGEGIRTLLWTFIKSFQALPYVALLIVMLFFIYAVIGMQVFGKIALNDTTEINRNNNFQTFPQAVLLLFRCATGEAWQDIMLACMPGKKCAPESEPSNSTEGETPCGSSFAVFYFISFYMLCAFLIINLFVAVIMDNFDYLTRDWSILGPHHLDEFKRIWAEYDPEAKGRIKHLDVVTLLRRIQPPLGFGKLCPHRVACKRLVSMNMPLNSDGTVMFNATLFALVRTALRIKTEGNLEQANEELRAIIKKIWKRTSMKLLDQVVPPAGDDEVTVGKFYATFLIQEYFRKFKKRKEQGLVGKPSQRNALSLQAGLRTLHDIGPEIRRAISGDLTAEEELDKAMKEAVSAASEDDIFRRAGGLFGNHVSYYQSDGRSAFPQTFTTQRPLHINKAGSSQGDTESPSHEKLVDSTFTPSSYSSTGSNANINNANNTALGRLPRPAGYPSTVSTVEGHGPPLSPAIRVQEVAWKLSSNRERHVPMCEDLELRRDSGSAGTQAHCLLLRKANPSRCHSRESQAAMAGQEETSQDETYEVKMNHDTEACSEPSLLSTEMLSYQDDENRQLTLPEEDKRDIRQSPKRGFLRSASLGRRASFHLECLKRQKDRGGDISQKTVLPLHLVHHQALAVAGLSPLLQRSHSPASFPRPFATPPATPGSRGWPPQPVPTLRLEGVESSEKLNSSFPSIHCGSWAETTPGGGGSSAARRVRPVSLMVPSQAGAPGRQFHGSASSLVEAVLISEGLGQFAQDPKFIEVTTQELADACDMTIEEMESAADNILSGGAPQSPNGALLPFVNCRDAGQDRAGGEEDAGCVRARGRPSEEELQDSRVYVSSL
Sequence (Q08289 whole entry partner): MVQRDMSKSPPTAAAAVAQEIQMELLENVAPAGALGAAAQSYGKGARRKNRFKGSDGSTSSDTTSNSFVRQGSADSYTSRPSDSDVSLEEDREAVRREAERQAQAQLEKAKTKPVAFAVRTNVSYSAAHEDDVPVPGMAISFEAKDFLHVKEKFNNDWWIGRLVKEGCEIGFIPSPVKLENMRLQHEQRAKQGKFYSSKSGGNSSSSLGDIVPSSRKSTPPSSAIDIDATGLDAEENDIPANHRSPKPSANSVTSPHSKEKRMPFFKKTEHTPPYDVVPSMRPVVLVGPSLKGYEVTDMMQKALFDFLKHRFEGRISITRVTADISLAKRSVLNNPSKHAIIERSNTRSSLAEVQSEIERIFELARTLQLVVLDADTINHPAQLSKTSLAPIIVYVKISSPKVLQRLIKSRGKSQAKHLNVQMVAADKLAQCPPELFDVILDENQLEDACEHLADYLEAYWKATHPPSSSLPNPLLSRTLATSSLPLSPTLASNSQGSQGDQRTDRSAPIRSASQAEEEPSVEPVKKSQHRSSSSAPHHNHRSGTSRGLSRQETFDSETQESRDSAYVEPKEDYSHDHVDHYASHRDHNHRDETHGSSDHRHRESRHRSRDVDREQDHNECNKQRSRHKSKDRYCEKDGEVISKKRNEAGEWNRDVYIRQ
Sequence (P54289 25-946 partner limits assumed): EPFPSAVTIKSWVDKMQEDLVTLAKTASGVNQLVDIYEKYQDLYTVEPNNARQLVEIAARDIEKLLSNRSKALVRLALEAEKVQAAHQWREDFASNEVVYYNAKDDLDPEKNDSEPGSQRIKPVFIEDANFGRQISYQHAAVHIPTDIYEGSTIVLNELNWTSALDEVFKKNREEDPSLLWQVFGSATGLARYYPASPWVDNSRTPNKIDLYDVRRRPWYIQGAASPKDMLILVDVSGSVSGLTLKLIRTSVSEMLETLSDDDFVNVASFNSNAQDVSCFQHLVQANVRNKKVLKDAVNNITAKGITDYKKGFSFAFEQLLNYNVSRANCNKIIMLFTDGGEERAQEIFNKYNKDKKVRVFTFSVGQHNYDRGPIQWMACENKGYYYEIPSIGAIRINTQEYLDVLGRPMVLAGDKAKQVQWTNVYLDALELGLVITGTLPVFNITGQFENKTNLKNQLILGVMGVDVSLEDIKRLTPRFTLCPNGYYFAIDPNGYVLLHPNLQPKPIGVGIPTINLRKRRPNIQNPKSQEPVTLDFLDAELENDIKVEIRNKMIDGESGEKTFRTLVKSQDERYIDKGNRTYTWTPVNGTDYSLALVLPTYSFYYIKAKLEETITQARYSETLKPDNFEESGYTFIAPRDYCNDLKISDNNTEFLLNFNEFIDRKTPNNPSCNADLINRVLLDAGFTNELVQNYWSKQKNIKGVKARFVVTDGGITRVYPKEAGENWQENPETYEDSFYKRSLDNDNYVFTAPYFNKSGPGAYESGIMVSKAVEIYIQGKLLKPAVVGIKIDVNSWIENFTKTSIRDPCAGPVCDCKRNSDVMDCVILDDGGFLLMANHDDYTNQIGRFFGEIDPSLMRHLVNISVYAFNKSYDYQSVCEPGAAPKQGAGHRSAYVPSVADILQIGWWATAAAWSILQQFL
Sequence (P54289 947-1103 partner limits assumed): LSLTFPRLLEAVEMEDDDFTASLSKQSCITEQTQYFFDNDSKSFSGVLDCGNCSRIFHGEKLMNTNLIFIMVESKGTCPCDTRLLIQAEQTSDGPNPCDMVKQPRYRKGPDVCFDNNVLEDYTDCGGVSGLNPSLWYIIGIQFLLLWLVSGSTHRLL
Assay: in vitro
Set-up: dose or concentration left out as unconfirmed
measured-metric: Emax (%)
Write down the numeric answer in % and omit the unit.

// Emax lookup, molecule = C=CCC1CCC[C@@H](CCC(=O)O)C1=C (stereo partly shown) [Compound 13] , result: 3.82

----------
Molecular target: hERG (Kv11.1) (Homo sapiens)
Construct: DiscoverX (SAFETYscan contract panel)
Sequence (Q12809 whole entry): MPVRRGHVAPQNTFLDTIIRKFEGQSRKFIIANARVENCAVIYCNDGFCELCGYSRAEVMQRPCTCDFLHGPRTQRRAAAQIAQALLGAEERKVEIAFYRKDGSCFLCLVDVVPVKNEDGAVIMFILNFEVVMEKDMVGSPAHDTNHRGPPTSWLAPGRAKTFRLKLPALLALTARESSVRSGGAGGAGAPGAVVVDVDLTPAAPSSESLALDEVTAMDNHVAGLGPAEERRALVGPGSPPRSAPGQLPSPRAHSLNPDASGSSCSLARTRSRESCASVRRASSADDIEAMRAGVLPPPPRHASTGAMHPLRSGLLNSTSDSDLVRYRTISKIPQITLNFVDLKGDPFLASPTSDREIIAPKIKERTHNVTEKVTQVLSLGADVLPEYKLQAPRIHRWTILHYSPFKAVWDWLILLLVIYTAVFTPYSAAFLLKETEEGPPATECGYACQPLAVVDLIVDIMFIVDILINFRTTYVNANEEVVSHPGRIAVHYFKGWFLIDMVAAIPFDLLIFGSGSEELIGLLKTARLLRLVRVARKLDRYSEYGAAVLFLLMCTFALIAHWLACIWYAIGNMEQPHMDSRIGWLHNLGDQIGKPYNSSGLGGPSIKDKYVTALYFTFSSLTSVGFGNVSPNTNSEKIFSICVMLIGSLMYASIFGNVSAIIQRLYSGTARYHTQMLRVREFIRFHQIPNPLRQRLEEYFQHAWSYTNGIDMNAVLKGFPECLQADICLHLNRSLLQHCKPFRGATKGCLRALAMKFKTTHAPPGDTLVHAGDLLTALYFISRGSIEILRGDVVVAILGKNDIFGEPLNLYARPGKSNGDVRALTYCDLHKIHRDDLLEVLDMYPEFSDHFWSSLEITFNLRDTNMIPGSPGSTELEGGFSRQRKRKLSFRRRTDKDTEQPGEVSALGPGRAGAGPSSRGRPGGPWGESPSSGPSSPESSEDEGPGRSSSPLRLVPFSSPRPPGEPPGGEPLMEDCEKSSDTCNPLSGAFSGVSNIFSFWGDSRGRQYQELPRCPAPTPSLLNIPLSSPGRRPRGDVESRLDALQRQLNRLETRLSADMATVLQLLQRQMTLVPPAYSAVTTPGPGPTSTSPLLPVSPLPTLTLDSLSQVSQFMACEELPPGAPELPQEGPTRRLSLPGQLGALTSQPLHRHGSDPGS
Test: in vitro
Format: cell-based
Settings: Blocker mode, 10 μM HU-MCA-13, read-out: Maximal Response
measured-metric: Emax at 10 μM (%)
Return type: number; implicit unit %.

The value of Emax at 10 μM measured for the molecule C=CCC1CCC[C@@H](CCC(=O)O)C1=C (stereo partly shown) turned out to be 0

Where do the numbers come from? From patent US20200239398A1.
